Source: a melting point compilation (Tetko et al.; mined from patent text by program, amines drawn as free bases though some values may be those of a salt)

melting point by entry:

CON(C)C(=O)COc1nnc(-c2ccc3c(c2)CCO3)o1 | 139 to 140 °C
Oc1ccc2c(c1)C13CCN(CC4CCC4)C(C2)C1CCOC3 (stereo not given) | 197 to 198 °C
CC=COC(=O)C1(S(=O)(=O)C(C)(C)C)C=CC=CC1C[C@H](N)C(=O)O (stereo not given in full) | 88 to 89.5 °C
O=C(O)c1cn(C2CC2)c2cc(N3CC(O)C3)c(F)cc2c1=O | 296 to 298 °C

**Q:** Quick one: melting point for COCCOc1ccc(C#CC2(O)CN3CCC2CC3)cc1 (stereo not given) ?
**A:** 148 to 149 °C

**Q:** Quick one: melting point for "CC1(C)OC(C=Cc2ccc(Cl)cc2)=CC1=O" ?
**A:** 91 to 92 °C

**Q:** Quick one: melting point for "CC(=O)Oc1ccc(Oc2cccc(C(=O)O)c2)cc1" ?
**A:** 141 to 143 °C

###

test readout: melting point

OCc1cc(-c2ccc(Cl)c(Cl)c2)n(Cc2cccc(Cl)c2)n1 | 95 °C
NC(=O)N1CCN(c2nn(-c3ccccc3Cl)c3ccccc23)CC1 | 156 to 158 °C
COc1ccc(C2=NN(C3CCN(C(=O)c4c(Cl)cc(Cl)cc4Cl)CC3)C(=O)CC2)cc1OC | 156 to 159 °C
COC(=O)c1cccc(Oc2cccc(-c3nn(Cc4ccc(C(F)(F)P(=O)(O)O)c(Cl)c4)c(=Nc4ccc(Cl)c(Cl)c4)s3)c2)c1 | 137 to 139 °C
COC(=O)c1cc(C(=O)c2ccc(OC)c(C(=O)OC)c2)ccc1OC | 142 to 144 °C

**Q:** Quick one: melting point for "Nc1ccc(-c2cnc3[nH]c(=O)n(CC4CCOCC4)c3n2)cn1" ?
**A:** > 260 °C

**Q:** Quick one: melting point for "Cc1ccc(NS(=O)(=O)Cc2ccccc2)c(OCc2ccccc2)c1CC(=O)O" ?
**A:** 132 to 134 °C

**Q:** Quick one: melting point for O=C1C(=Cn2ccnc2)C(c2ccccc2)c2ccccc21 (centres undefined) ?
**A:** 204 to 206 °C

**Q:** Quick one: melting point for "COc1cnc(NCCCOc2cccc(CN3CCCCC3)c2)[nH]c1=O" ?
**A:** 148 to 150 °C

###

melting point by entry:

O=C1CCC(N2Cc3c(CNC(=O)c4ccccn4)cccc3C2=O)C(=O)N1 (centres undefined) | 254 to 256 °C

**Q:** Quick one: melting point for "Cc1cc(N(C)Cc2ccc(-c3ccc(Cl)cc3)nc2)ccc1OCC(=O)O" ?
**A:** 174 to 176 °C

**Q:** Quick one: melting point for "CCOc1ccc2c(c1)n(C1CCCCC1)c(=O)n2S(=O)(=O)c1ccc(N)cc1OC" ?
**A:** 228 °C

**Q:** Quick one: melting point for "CCN1C(=O)C(C)(C)C(=O)N(C)c2cc(CN(CCn3ccc4oc(C)cc4c3=O)Cc3cccc4c3OCO4)ccc21" ?
**A:** 136 to 138 °C

###

test readout: melting point

Recorded results for 5 compounds are shown here.
CC(=O)CCC(=O)c1ccc(S(C)(=O)=O)cc1 | 132 to 133 °C
COc1cc(CN2C(=N)c3cc(-c4ccc(F)cc4F)ccc3S2(=O)=O)ccn1 | 173 °C
CCc1nn2ccccc2c1NC(C)=O | 184 to 188 °C
Cc1c2n3ccc4c3c(c3cnccn3c-2cc(=O)c1=O)CCC4 | > 80 °C
N#CC1CN1C(=O)NC(=O)C(Cl)Cl (stereo unspecified) | 164 to 166 °C

**Q:** Quick one: melting point for "CCCNc1ccc(Cl)cc1Cl" ?
**A:** 121 °C

**Q:** Quick one: melting point for COC(=O)C1CN1C(c1ccccc1)(c1ccccc1)c1ccccc1 (stereo unspecified) ?
**A:** 127 to 128 °C

**Q:** Quick one: melting point for "COc1cccc2c1OCC(C#N)=C2" ?
**A:** 105 to 106 °C

**Q:** Quick one: melting point for CCOC(=O)CCCCCCOc1cc2c(c(Cl)c1Cl)C(=O)C(C)(C1CCCC1)C2 (stereo unspecified) ?
**A:** 47 to 50 °C

**Q:** Quick one: melting point for O=[N+]([O-])C1NC=CN1c1ccncc1 (stereo unspecified) ?
**A:** 234 °C

**Q:** Quick one: melting point for "COc1ccc(C=C(C#N)c2ccccn2)cc1OC" ?
**A:** 112 °C
